- TARGET_DESC: SIRT1 (Homo sapiens, UniProt Q96EB6)
- Sequence (Q96EB6 whole entry): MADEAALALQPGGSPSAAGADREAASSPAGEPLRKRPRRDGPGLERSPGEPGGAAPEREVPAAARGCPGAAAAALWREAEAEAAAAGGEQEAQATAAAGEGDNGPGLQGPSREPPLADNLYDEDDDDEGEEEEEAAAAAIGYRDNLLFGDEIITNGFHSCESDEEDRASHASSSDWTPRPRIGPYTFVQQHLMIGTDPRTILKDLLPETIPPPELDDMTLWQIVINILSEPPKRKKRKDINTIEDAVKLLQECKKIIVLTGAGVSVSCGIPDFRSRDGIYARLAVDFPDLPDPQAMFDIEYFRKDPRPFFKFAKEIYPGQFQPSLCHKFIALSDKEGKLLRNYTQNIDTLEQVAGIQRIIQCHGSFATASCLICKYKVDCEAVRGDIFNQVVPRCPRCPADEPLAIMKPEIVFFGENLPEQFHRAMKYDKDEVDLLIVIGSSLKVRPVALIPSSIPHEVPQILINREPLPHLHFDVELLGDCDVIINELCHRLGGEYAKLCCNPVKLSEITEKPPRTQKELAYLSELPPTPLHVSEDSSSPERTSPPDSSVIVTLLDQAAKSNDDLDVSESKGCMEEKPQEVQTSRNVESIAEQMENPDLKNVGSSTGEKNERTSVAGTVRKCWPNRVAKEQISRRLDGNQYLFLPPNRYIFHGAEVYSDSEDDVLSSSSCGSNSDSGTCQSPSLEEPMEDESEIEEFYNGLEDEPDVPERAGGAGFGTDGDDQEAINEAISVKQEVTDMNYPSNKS
- MEASUREMENT_NOTES: Mass spectrometry based assay to identify modulators of SIRT1 activity (deacetylation of p53-based acetylated peptide)
- Format: biochemical
- SETUP_CONDITIONS: SIRT1 activation; 10 nM SIRT1, 0.5 μM peptide substrate, 120 μM βNAD+, 25 minutes at 25° C.
EXPERIMENTAL_READOUT: EC1.5 μM

{"SMILES": "Cn1c(-c2ccncn2)nc2c(NC(=O)c3cnccn3)cccc2c1=O", "EXPERIMENTAL_READOUT": "EC1.5 μM", "RECORDED_MEASUREMENT": "C (EC1.5>25 μM)"}
{"SMILES": "Cn1c(-c2cccc(C(F)(F)F)c2)nc2c(NS(=O)(=O)c3ccccn3)cccc2c1=O", "EXPERIMENTAL_READOUT": "EC1.5 μM", "RECORDED_MEASUREMENT": "C (EC1.5>25 μM)"}
{"SMILES": "Cn1c(-c2ccccn2)nc2c(C(=O)Nc3ccccn3)cccc2c1=O", "EXPERIMENTAL_READOUT": "EC1.5 μM", "RECORDED_MEASUREMENT": "C (EC1.5>25 μM)"}
{"SMILES": "Cn1cc(-c2nc3c(NC(=O)c4cnccn4)cccc3c(=O)n2C)cn1", "EXPERIMENTAL_READOUT": "EC1.5 μM", "RECORDED_MEASUREMENT": "C (EC1.5>25 μM)"}

Cited source for all entries: patent US9326986B2
